Assay: in vivo
Conditions: rat, po, 5 mg/kg
property_label: AUC at 240 h (ng·h/mL)
Respond numerically; units are ng·h/mL and should not be typed.

## Task Query (compound): `Cc1cnc(Nc2ccc(N3CCOCC3)cc2)nc1-c1cc2c(o1)CCN(C(=O)CC#N)C2` ; field requested: AUC at 240 h
## Result 1490

---

Target: hERG (KCNH2) (Homo sapiens)
Assay: Inhibition of human ERG at 0.3 uM relative to control
property_label: inhibition at 0.3 µM (%)
Respond numerically; units are % and should not be typed.

## Task Form field - read-out: inhibition at 0.3 µM; system: hERG (KCNH2) (Homo sapiens); submitted item: `Cc1cnc(Nc2ccc(N3CCOCC3)cc2)nc1-c1cc2c(o1)CCN(C(=O)CC#N)C2`
## Result 1.9

---

Target: UniProt:Q12809
Experiment: Inhibition of human ERG at 30 uM relative to control
property_label: inhibition at 30 µM (%)
Respond numerically; units are % and should not be typed.

## Task Form field - read-out: inhibition at 30 µM; system: UniProt:Q12809; submitted item: `Cc1cnc(Nc2ccc(N3CCOCC3)cc2)nc1-c1cc2c(o1)CCN(C(=O)CC#N)C2`
## Result 16.4

---

Test: Oral bioavailability in Sprague-Dawley rat at 10 mg/kg after 2 mins to 24 hrs by LC-MS/MS analysis
Assay type: ADME, organism-based
Conditions: in vivo
property_label: bioavailability (%)
Respond numerically; units are % and should not be typed.

## Task Query (compound): `Cc1cnc(Nc2ccc(N3CCOCC3)cc2)nc1-c1cc2c(o1)CCN(C(=O)CC#N)C2` ; field requested: bioavailability
## Result 54.8

---

Experiment: in vivo
Conditions: Sprague-Dawley, rat, po, 10 mg/kg
property_label: CL/F (mL/min/kg)
Respond numerically; units are mL/min/kg and should not be typed.

## Task Query (molecule): `Cc1cnc(Nc2ccc(N3CCOCC3)cc2)nc1-c1cc2c(o1)CCN(C(=O)CC#N)C2` ; field requested: CL/F
## Result 71.8

---

Assay: in vivo
Conditions: Sprague-Dawley, rat, po, 10 mg/kg
property_label: MRT last (h)
Respond numerically; units are h and should not be typed.

## Task Query (compound): `Cc1cnc(Nc2ccc(N3CCOCC3)cc2)nc1-c1cc2c(o1)CCN(C(=O)CC#N)C2` ; field requested: MRT last
## Result 3.49

---

Target: Tyrosine-protein kinase JAK3 (Homo sapiens, UniProt P52333)
Sequence (P52333 whole entry): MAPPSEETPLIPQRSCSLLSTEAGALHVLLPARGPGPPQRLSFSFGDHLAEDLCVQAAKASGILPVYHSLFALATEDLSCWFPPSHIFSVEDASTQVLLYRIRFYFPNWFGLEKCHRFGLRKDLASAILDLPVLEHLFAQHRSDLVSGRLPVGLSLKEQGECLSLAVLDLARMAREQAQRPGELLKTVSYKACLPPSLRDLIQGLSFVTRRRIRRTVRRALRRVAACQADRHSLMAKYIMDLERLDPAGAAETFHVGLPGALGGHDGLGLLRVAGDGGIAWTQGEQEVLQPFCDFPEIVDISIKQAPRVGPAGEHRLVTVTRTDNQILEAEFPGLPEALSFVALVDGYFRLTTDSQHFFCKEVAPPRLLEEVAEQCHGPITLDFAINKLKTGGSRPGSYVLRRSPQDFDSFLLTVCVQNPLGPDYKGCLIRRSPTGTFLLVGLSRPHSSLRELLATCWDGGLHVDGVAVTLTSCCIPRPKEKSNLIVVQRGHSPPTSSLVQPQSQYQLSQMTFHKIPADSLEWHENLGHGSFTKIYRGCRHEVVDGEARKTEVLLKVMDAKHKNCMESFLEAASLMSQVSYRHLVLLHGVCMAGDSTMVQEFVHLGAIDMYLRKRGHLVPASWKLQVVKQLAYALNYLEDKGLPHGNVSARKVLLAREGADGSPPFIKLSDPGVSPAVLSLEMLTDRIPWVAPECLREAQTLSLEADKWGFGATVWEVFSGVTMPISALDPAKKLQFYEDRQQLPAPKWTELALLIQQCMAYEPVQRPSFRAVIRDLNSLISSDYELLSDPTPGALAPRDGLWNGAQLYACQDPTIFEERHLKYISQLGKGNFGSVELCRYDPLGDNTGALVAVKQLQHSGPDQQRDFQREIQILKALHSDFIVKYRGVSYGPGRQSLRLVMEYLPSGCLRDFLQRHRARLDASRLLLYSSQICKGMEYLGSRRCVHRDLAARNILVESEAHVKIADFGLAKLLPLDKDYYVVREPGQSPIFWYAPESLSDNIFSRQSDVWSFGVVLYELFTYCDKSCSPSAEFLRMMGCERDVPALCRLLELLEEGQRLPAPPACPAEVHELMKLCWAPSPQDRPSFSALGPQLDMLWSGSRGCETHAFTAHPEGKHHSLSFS
Give measured pIC50 for each item. Keep answers brief.
Give only the number. pIC50 is defined as minus log10 of concentration in molar units.

## Task Query (compound): `Cc1cnc(Nc2cc(F)c(N3CCOCC3)c(F)c2)nc1-c1cc2c(o1)CCN(S(C)(=O)=O)C2` ; field requested: pIC50
## Result 6.71

## Task Query (compound): `CCC(=O)N1CCc2oc(-c3nc(Nc4ccc(N5CCOCC5)cc4)ncc3C)cc2C1` ; field requested: pIC50
## Result 6.95

## Task Query (compound): `Cc1cnc(Nc2ccc(N3CCOCC3)cc2)nc1-c1cc2c(o1)CCN(C(=O)C(C)C)C2` ; field requested: pIC50
## Result 7.49

## Task Query (compound): `Cc1cnc(Nc2cccc(N3CCN(C)CC3)c2)nc1-c1cc2c(o1)CCN(S(C)(=O)=O)C2` ; field requested: pIC50
## Result 6.12

## Task Query (compound): `Cc1cnc(Nc2ccc(F)cc2)nc1-c1cc2c(o1)CCN(S(C)(=O)=O)C2` ; field requested: pIC50
## Result 5.29

## Task Query (compound): `Cc1cnc(Nc2ccccc2)nc1-c1cc2c(o1)CCN(C(=O)CC#N)C2` ; field requested: pIC50
## Result 7.02

## Task Query (compound): `Cc1cnc(Nc2ccc(N3CCOCC3)cc2)nc1-c1cc2c(o1)CCN(C(=O)c1ccc(C#N)cc1)C2` ; field requested: pIC50
## Result 6.37

## Task Query (compound): `Cc1cnc(Nc2ccc(N3CCN(C)CC3)cc2)nc1-c1cc2c(o1)CCN(C(=O)CC#N)C2` ; field requested: pIC50
## Result 7.47

## Task Query (compound): `Cc1cnc(Nc2ccc(OCCN3CCCC3)cc2)nc1-c1cc2c(o1)CCN(S(C)(=O)=O)C2` ; field requested: pIC50
## Result 7.25

---

Test: Clearance in Sprague-Dawley rat at 2.5 mg/kg, iv after 2 mins to 24 hrs by LC-MS/MS analysis
Type: ADME, organism-based
Details: in vivo
property_label: clearance (mL/min/kg)
Respond numerically; units are mL/min/kg and should not be typed.

## Task Query (compound): `Cc1cnc(Nc2ccc(N3CCOCC3)cc2)nc1-c1cc2c(o1)CCN(C(=O)CC#N)C2` ; field requested: clearance
## Result 42

---

Experiment: in vivo
Details: Sprague-Dawley, rat, po, 10 mg/kg
property_label: half-life (h)
Respond numerically; units are h and should not be typed.

## Task Query (compound): `Cc1cnc(Nc2ccc(N3CCOCC3)cc2)nc1-c1cc2c(o1)CCN(C(=O)CC#N)C2` ; field requested: half-life
## Result 2.91

---

Assay: in vivo
Details: Sprague-Dawley, rat, po, 10 mg/kg
property_label: AUC(0-t) (ng·h/mL)
Respond numerically; units are ng·h/mL and should not be typed.

## Task Query (compound): `Cc1cnc(Nc2ccc(N3CCOCC3)cc2)nc1-c1cc2c(o1)CCN(C(=O)CC#N)C2` ; field requested: AUC(0-t)
## Result 2190

---

Biological target: hERG (KCNH2) (Homo sapiens, UniProt Q12809)
Sequence (Q12809 whole entry): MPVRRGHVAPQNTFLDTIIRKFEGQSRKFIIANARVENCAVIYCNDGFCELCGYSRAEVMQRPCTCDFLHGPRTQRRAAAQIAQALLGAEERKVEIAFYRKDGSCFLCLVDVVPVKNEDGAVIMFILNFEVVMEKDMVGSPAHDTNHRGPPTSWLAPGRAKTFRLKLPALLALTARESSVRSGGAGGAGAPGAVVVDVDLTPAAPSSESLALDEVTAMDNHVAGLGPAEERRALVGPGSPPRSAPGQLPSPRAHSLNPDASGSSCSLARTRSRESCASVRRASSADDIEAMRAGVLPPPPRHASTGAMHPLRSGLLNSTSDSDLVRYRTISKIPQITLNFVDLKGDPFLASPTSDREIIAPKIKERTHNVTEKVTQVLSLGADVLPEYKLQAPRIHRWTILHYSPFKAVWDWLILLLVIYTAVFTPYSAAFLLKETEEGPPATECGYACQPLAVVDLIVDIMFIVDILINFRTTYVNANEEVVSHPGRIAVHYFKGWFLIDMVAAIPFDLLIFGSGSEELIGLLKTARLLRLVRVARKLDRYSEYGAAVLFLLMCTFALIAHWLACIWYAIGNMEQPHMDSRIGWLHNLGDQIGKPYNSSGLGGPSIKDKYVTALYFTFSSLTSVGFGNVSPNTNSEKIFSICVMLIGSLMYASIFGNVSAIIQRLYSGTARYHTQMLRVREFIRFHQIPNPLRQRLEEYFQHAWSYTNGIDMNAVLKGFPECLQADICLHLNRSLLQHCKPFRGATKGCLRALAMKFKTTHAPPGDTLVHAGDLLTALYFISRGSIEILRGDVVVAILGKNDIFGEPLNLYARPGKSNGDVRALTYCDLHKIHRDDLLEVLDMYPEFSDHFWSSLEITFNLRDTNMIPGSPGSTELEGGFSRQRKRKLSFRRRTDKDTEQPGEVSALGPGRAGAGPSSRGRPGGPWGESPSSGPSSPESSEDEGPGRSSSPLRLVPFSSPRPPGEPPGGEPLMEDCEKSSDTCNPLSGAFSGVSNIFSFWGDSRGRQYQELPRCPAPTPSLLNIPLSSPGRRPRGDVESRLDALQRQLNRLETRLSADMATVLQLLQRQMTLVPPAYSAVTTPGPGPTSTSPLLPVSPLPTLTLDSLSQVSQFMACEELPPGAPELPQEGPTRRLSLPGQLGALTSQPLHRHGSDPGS
Assay: Inhibition of human ERG at 3 uM relative to control
property_label: inhibition at 3 µM (%)
Respond numerically; units are % and should not be typed.

## Task Query (molecule): `Cc1cnc(Nc2ccc(N3CCOCC3)cc2)nc1-c1cc2c(o1)CCN(C(=O)CC#N)C2` ; field requested: inhibition at 3 µM
## Result 11.2

---

Assay: in vivo
Settings: Sprague-Dawley, rat, po, 10 mg/kg
property_label: Cmax
Kindly format the answer as number then unit.

## Task Query (compound): `Cc1cnc(Nc2ccc(N3CCOCC3)cc2)nc1-c1cc2c(o1)CCN(C(=O)CC#N)C2` ; field requested: Cmax
## Result 540 ng/mL

These measurements were taken from ChEMBL document CHEMBL4340527.
